Ki values for Sodium-dependent serotonin transporter (Homo sapiens) compiled from several publications are listed below.
QUANTITY_MEASURED: Ki (nM)

1. CSc1ccc(C2CN(C)Cc3cc(Oc4cncc(CN5CCCCC5)c4)ccc32)cc1 (stereo not drawn); 8.3
2. CC(C)CN(C(=O)c1cc(Cl)cc(Cl)c1)[C@H]1CCNC1; 6
3. CN(C)Cc1ccccc1Sc1ccc(CCF)cc1N; 8.5

* * *

pKi values for Sodium-dependent serotonin transporter (Homo sapiens, UniProt P31645) compiled from several publications are listed below.
pKi: −log10 of the molar value.
Answer f if pKi is under 8, and t if it is 8 or more.

1. CC(C)CN(Cc1ccc(Cl)cc1Cl)C1CCNCC1; t
2. CCCN(Cc1ccc(F)cc1C(F)(F)F)C1CCNCC1; t
3. CC(C)CN(Cc1c(F)cccc1C(F)(F)F)C1CCNCC1; t
4. CNC(=O)c1ccccc1Sc1ccccc1[N+](=O)[O-]; f
5. C[C@H]1CN(c2cccc3cc(F)ccc23)CCN1CC[C@@H]1OCc2cc(C(N)=O)ccc21; t
6. Cc1cccc(F)c1Oc1cccc(F)c1OC1CCNC1 (configuration not stated); f
7. CCOc1cc(Cl)ccc1OC(c1ccccc1)C1CNCCO1 (racemic; anti); f
8. CC(C)CN(C(=O)c1ccc(Cl)c(Cl)c1)[C@H]1CCNC1; t
9. CNCCC(Oc1cccc2ccccc12)c1ccc(C)cc1 (configuration not stated); t
10. COc1cc2c(cc1OC)C1=NO[C@@H](CN3CCN(C/C=C\c4ccccc4)CC3)[C@@H]1CO2; f
11. Cc1cccc(CN(CC(C)C)C2CCNCC2)c1; t
12. CC(C)N(Cc1ccccc1C(F)(F)F)C1CCNCC1; t
13. CC(C)CN(C(=O)c1ccccc1C(C)C)[C@H]1CCNC1; f
14. COCCOc1cc(CC2CCN(CCc3ccc4c(c3)C(=O)CCO4)CC2)ccc1F; f
15. O=C1NCc2ccc3c(c21)CC(N(CCCc1c[nH]c2ccc(F)cc12)CC1CCCCC1)CO3 (racemic); f
16. COc1ccc(O[C@H](CC(C)C)[C@@H]2CCNC2)c(C)n1; t
17. COc1ccc2[nH]cc(C3CC(=O)N(CCCN4CCC(c5c[nH]c6ccccc56)CC4)C3=O)c2c1 (configuration not stated); f
18. CC(C)CN(Cc1ccc(F)cc1)C1CCNCC1; t
19. Fc1cccc(OCc2ccccc2C2CCNCC2)c1; f
20. COc1ccc(C2=NN(CCCCCBr)C(=O)C3CC=CCC23)cc1OC (configuration not stated); f
21. CN(C)Cc1cc(OCCO)ccc1Sc1ccc(F)cc1N; t
22. O=C([C@H]1C[C@H](O)CN1c1ccc(Cl)cc1)N1CC2COCC(C1)N2Cc1ccc(Cl)cc1; f
23. C[C@H]1CN(C(=O)c2ccc(-c3ccccc3)cc2)CCN1C(=O)c1ccc2cc[nH]c2c1; f
24. Clc1cccc(Oc2ncccc2C2CCNCC2)c1Cl; t
25. COCCOc1cc(Br)cc(CC2CCN(CCc3ccc4c(c3)OCCO4)CC2)c1; f
26. N#CCCN(Cc1ccc(F)cc1C(F)(F)F)C1CCNCC1; t
27. COc1cc(CN(C)[C@H]2C3C4CC5C6C4CC3C6C52)cc(OC)c1OC (some centres not stated); f
28. CCOc1ccccc1N1CCN(CCCCn2nc(-n3ccc4ccccc43)ccc2=O)CC1; f
29. COCCOc1cc(CC2CCN(CCc3ccc4c(c3)OCCO4)CC2)ccc1Br; t
30. COc1ccc(CN2CCCC2)cc1OC; f
